Published IC50 for PIK3CD (Human), assembled from different documents, is shown next.

FC(F)c1nc2ccccc2n1-c1cc(N[C@H]2C[C@@H]3C[C@H](N4CCOCC4)C[C@@H]3C2)nc(N2CCOCC2)n1: 0.0041 µM
C[C@H](NC(=O)c1nc(-c2cscn2)cnc1N)c1cc2cccc(Cl)c2c(=O)n1-c1ccccc1: > 10 µM
C[C@H](Nc1ccnn2ccnc12)c1cc2cccc(Cl)c2c(OCCN2CCCC2)n1: < 0.1 µM

Now consider a different molecule.
What does the record list as IC50 for Cn1ncc2c(-c3cnc(N)nc3)nc(N3CCOCC3)nc21 ? 0.1 to 10 µM

###

# IC50 against PIK3CD (Human) (UniProt O00329), merged from multiple literature sources

CC(C)n1c(Cn2nc(-c3cc(O)cc(F)c3)c3c(N)ncnc32)cc2cccc(Cl)c2c1=O: < 0.1 µM
Cc1cccc2cc(Cn3nc(I)c4c(N)ncnc43)n(C3CCC3)c(=O)c12: < 0.1 µM
C[C@H](Nc1ncnc2[nH]cnc12)c1cc2cccc(Cl)c2c(-c2cc(CO)on2)n1: < 0.1 µM
CN(C)CC(=O)N[C@H]1CC[C@H](Nc2cc(-n3c(C(F)F)nc4ccccc43)nc(N3CCOCC3)n2)CC1: 0.044 µM
Cc1cccc2cc(Cn3nc(-c4cc(O)cc(F)c4)c4c(N)ncnc43)n(C3CCC3)c(=O)c12: < 0.1 µM
Cc1ncc(-c2ccc3ncc(C(=O)N4CCOCC4)n3c2)c2cc[nH]c12: > 10 µM
CC(C)N1CCC(NC(=O)c2nc([C@H](C)Nc3ncnc4scnc34)cc3cccc(Cl)c23)CC1: < 1 µM

Attention now turns to another entry.
Which IC50 is listed for Cc1cccc2cc(Cn3cnc4c(N)ncnc43)n(-c3ccccc3F)c(=O)c12 ? < 10 µM

###

Compiled record: IC50 values for PIK3CD (Human) (UniProt O00329) across several sources.

// worked examples, IC50 included
COc1ncc(-c2nc(N3CCOCC3)nc3c(CN4CCc5sccc5C4)c(C)sc23)cc1NS(C)(=O)=O: 0.032 µM
Cc1ccccc1-n1c(Cn2nc(C#C[C@@H](C)O)c3c(N)ncnc32)cc2cccc(C)c2c1=O: < 0.1 µM
C=CCN(CC(C)(C)O)[C@H]1CC[C@H](CNc2nc(N3CCOCC3)cc(-n3c(C(F)F)nc4ccccc43)n2)CC1: 0.01 µM
C[C@H](Nc1ncnc2[nH]cnc12)c1cc2cccc(Cl)c2c(C(=O)N2CCN(C)CC2)n1: < 0.1 µM
Cc1cccnc1-n1c(Cn2nc(Br)c3c(N)ncnc32)cc2cccc(C)c2c1=O: < 1 µM
CCC(=O)N1CC(N2Cc3c(F)c(Cl)cc(C(C)n4nc(C)c5c(N)ncnc54)c3OC(C)C2)C1 (stereo not drawn): ≤ 0.1 µM

So what IC50 did C[C@H](NC(=O)c1c(N)nn2cccnc12)c1cc2cccc(CO)c2c(=O)n1-c1ccccc1 get with PIK3CD (Human) (UniProt O00329)? 1 to 10 µM

Lookup: IC50 / PIK3CD (Human) (UniProt O00329) / COc1ncc(-c2nc(N3CCOCC3)nc3c(CN4CCN(C(=O)C(F)(F)F)CC4)c(C)sc23)cc1NS(C)(=O)=O 0.0049 µM

Any idea what IC50 came out for Nc1nc2cc(-c3ccc4ncc(N5CC[C@H](N6CCOCC6)C5)nc4c3)ccc2o1 on PIK3CD (Human) (UniProt O00329)? < 10 µM

For PIK3CD (Human) (UniProt O00329), provide IC50 of Cc1cccc2cc([C@H](C)Nc3ncnc4[nH]cnc34)nc(OCCN3CCCC3)c12 please. < 0.1 µM

Find the measured IC50: item C[C@H](NC(=O)c1nc(-c2cccc(NS(C)(=O)=O)c2)cnc1N)c1cc2cccc(N3CCOCC3)c2c(=O)n1-c1ccccc1 , target or system PIK3CD (Human) (UniProt O00329). > 10 µM

Give recorded IC50 with PIK3CD (Human) (UniProt O00329) for the following compound: CC(C)NCCOc1ncc(-c2cc3c(cc2F)ncc2c3[C@]3(C[C@@H](OCc4ccccc4)C3)C(=O)N2C)cc1NS(C)(=O)=O > 0.1 µM

Which measured IC50 belongs to C[C@H](Nc1ncnc2[nH]cnc12)c1cc2cccc(Cl)c2c([S+]([O-])CCN2CCOCC2)n1 (stereo partly drawn) , tested on PIK3CD (Human) (UniProt O00329)? < 0.1 µM

Can you look up IC50 on PIK3CD (Human) (UniProt O00329) for Nc1nc2cc(-c3ccc4ncc(N5CCOCC5)n4c3)ccc2o1 ? > 10 µM

For the record C=CC(=O)NCCC#Cc1cccc2cc([C@H](C)NC(=O)c3c(N)nn4cccnc34)n(-c3ccccc3)c(=O)c12 , what value of IC50 is listed for PIK3CD (Human) (UniProt O00329)? 1 to 10 µM
